biological target: T1, monkey GPC3-His protein (monkey); experiment: SPR, antibody captured on Protein A chip, monkey GPC3-His analyte;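 also: run at 25 °C with 240 s association and up to 600 s dissociation, double-referenced, kinetics fitted to a 1:1 Langmuir binding model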
T1 construct: Bought recombinant protein; also called monkey GPC3 protein
reported.endpoint: kon (M⁻¹ s⁻¹)
Could you give me the number in M⁻¹ s⁻¹? Just the number is fine.

Q: // Input: F3.54.12 (antibody, human IgG1, kappa, V domains shown, Human-murine chimeric antibody) VH: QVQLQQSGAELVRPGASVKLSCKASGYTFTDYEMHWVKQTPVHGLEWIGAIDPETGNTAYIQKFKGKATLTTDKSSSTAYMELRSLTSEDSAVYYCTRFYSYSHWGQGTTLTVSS VL: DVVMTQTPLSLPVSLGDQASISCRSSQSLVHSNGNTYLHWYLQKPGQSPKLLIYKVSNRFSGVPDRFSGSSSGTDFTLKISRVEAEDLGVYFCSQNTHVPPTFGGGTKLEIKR . Output its kon only.
Result: 541000

Q: Please report kon for the following binder: F3.81.19 (antibody, human IgG1, kappa, V domains shown, Human-murine chimeric antibody) VH: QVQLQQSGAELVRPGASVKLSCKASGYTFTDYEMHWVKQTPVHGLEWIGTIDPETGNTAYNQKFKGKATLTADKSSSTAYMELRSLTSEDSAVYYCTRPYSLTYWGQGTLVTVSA VL: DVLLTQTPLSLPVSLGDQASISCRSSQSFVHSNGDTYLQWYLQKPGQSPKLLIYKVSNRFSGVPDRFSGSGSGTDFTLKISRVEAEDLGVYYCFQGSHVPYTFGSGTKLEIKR
Result: 631000

Q: Specify kon for F2.154.1 (antibody, human IgG1, kappa, V domains shown, Human-murine chimeric antibody) VH: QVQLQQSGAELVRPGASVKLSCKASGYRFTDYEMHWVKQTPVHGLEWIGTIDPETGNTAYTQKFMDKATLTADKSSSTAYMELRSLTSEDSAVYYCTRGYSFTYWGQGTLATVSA VL: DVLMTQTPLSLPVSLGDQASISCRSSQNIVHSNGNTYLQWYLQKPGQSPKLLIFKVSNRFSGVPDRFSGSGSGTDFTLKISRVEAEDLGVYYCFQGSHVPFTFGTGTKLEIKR and stop.
Result: 713000
